- Tested on: MCF7 breast
- assay procedure: NCI-60 one-dose screen, 48 h
- setup conditions: 10 µM unless noted
This is part of a sample that, as a whole, favours compounds with a hit. Of some 83,000 tested, about 20% had one in any assay. Active and inactive are the calls of the source. Rule for the calls: active = growth percent below 10; inactive = the rest.
Use one of these outcomes when replying: active, inactive

Before answering, review these 2 worked examples.
compound	assigned class
O=C(CCCCCCN1CC(=O)N2[C@@H](c3cccc(Br)c3)c3[nH]c4ccccc4c3C[C@H]2C1=O)NO	inactive
CCn1c2ccc(/C=N/OCCCN(C)C)cc2c2cc(/C=N/OCCCN(C)C)ccc21	active

// query Write down the call the test reported for this compound. Item: COc1ccc(/C(C)=C(\c2ccc(Cl)cc2)c2ccc(OCCN)cc2)cc1
// result inactive

// query Per the assay record, what outcome was assigned to Cc1cc(F)cc(NS(=O)(=O)c2ccc(-c3cnc(C4CC4)o3)cc2)c1 ?
// result inactive

// query Tell me the assay call for CN(C)CCn1c2ccc(N)cc2c2nc3ccccc3nc21 please.
// result active

// query Kindly provide the recorded test outcome for the following compound: COc1cc(/C=N/n2cnc3oc(-c4ccccc4)cc3c2=N)cc(CN2CCCC2)c1O
// result active

// query What classification did O=C(/C=C/c1cn(-c2ccccc2)nc1-c1ccc(Cl)cc1)c1cc2ccccc2oc1=O end up with in this test?
// result inactive

* * *

- System: COLO 205 colon
- assay procedure: NCI-60 one-dose screen, 48 h
- setup conditions: 10 µM unless noted
This is part of a sample that, as a whole, favours compounds with a hit. Of some 83,000 tested, about 20% had one in any assay. Calls of active or inactive are those of the source. How the source made its calls: active means growth percent below 10; inactive means the rest.
Your response should consist of one outcome taken from y for active, n for inactive

Recorded results for 6 molecules are shown here.
molecule	assigned class
CS(=O)(=O)c1nccc(-c2c(-c3ccc(F)c(OCc4ccccc4)c3)nc3sccn23)n1	n
O=C1/C(=C/c2ccccc2[N+](=O)[O-])Oc2ccc(O)cc21	n
CS(=O)(=O)c1ccc(-c2nn(-c3ccccc3)cc2/C=N/NC(=O)c2ccncc2)cc1	n
Cc1cn(-c2cc(NC(=O)c3cncc(C#Cc4cnc5ccc(O[C@@H]6CCOC6)nn45)c3)cc(C(F)(F)F)c2)cn1	y
Oc1ccc(CSc2nnc(-c3ccccc3)o2)c2cccnc12	n
C#C[C@]1(O)CC[C@H]2[C@@H]3CC=C4c5sc(C6CCOCC6)nc5CC[C@]4(C)[C@H]3CC[C@@]21C	n

// query Outcome logged for CN1CCN(Cc2ccc(NC(=O)c3cncc(C#Cc4[nH]nc5ncncc45)c3)cc2C(F)(F)F)CC1 in this assay:
// result n

// query Given O=C1NC(=O)/C(=C/c2ccc(OCc3cc4ccccc4nc3Cl)cc2)S1 , state the outcome it received in this test.
// result n

// query Which outcome was assigned to Cc1cc2nc(C(Cl)Cl)nc(-c3ccco3)n2n1 in this test?
// result n

// query Please share the test call associated with COc1cc2c3c(n(CCCNC4CCC4)c(=O)c2cc1OC)-c1cc2c(cc1C3=O)OCO2 .
// result y

// query Called result for O=C(Nc1ccc(Cl)cc1)Nc1nc2ccc([N+](=O)[O-])cc2s1
// result y

// query Can you look up the reported call for CC(=O)c1sc(Nc2cccc(Nc3nc(C)c(C)s3)c2)nc1C for me?
// result n

// query What did this assay record as the result for C[C@@H]1C[C@H]2C(=O)OCC(NC(=O)[C@H](Cc3cc(F)cc(F)c3)NC(=O)Nc3ccc(Cl)cc3F)C(=O)N3CCC[C@H]3C(=O)N3CCCC[C@H]3C(=O)N[C@@H](C)C(=O)N2C1 (stereo not given in full) ?
// result y

// query Please share the test call associated with Cc1ccc(NC(=O)c2cc(/C=C/C(=O)NO)cc(C(F)(F)F)c2)cc1Nc1nccc(-c2cccnc2)n1 .
// result y
